Test system: HIV mutant strain 1 (E138K/G140S/Q148H/N155H)
Format: cell-based
PARTICULARS: FC=EC50 of the mutant strain/EC50 of the wild strain, HeLa-CD4 cells
PARAMETER: FC (fold change) for mutant strain 1
One number for each entry.

Here is how some compounds turned out for FC (fold change) for mutant strain 1.
- SMILES TEXT: "CCN1C(=O)c2c(O)c(=O)c(-c3nnc(Cc4ccc(F)cc4F)s3)cn2N2C[C@@H](C)CC[C@@H]12"
  FC (fold change) for mutant strain 1: 5.2
- SMILES TEXT: "CCN1C(=O)c2c(O)c(=O)c(-c3nnc(Cc4ccc(F)cc4)s3)cn2N2C[C@@H]3CC[C@@H](O3)[C@@H]12"
  FC (fold change) for mutant strain 1: 20

Can you give me FC (fold change) for mutant strain 1 for all of these, one by one?
1. C[C@@H]1CCC[C@H]2N(C)C(=O)c3c(O)c(=O)c(-c4nnc(Cc5ccc(F)cc5F)s4)cn3N12
2. CCN1C(=O)c2c(O)c(=O)c(-c3nnc(Cc4c(F)cc(F)cc4F)s3)cn2N2[C@H](COC)CC[C@@H]12
3. C[C@@H]1CC[C@H]2N(C)C(=O)c3c(O)c(=O)c(-c4nnc(Cc5ccc(F)cc5F)s4)cn3N12
4. CCN1C(=O)c2c(O)c(=O)c(-c3nnc(Cc4c(F)cc(F)cc4F)s3)cn2N2C[C@@H]3CC[C@@H](C3)[C@@H]12
5. CN1C(=O)c2c(O)c(=O)c(-c3nnc(Cc4ccc(F)cc4F)s3)cn2N2CCCC[C@@H]12

[A]
1. 6.8
2. 10
3. 7.2
4. 2.3
5. 8.8
